The reported measurements were obtained from patent US8993562B2.

system: α1-GABAA receptor; assay: Ligand-binding assay, radiolabeled flumazenil competition, cerebellum membranes; details: 10^−7 M; rat cerebellum membranes; radiolabeled flumazenil 1 nM
So I've got a bunch of compounds here, and I need their % inhib 10^−7 M, affinity for the α1-subunit of the GABAA receptor values.
Give bare numbers, in %.

// % inhib 10^−7 M, affinity for the α1-subunit of the GABAA receptor (α1-GABAA receptor) for "CCOc1ccc2nc(-c3ccc(F)cc3)c(CC(=O)N(CC)CC)n2n1" = 50.4

Short answer on α1-GABAA receptor for "CCCN(CCC)C(=O)Cc1c(-c2ccc(OC)cc2)nc2ccc(C)nn12" , % inhib 10^−7 M, affinity for the α1-subunit of the GABAA receptor: 95.0

The recorded % inhib 10^−7 M, affinity for the α1-subunit of the GABAA receptor with α1-GABAA receptor for "CCCN(CCC)C(=O)Cc1c(-c2ccc(F)cc2)nc2ccc(OCC)nn12" was 49.9

Log: α1-GABAA receptor, compound "CCCN(CCC)C(=O)Cc1c(-c2ccc(F)cc2)nc2ccc(OC)nn12" , % inhib 10^−7 M, affinity for the α1-subunit of the GABAA receptor = 75.4

Lab entry: α1-GABAA receptor assay, compound "Cc1ccc(-c2nc3ccc(C)nn3c2CC(=O)NN2CCCCC2)cc1" , % inhib 10^−7 M, affinity for the α1-subunit of the GABAA receptor = 53.7

Required: % inhib 10^−7 M, affinity for the α1-subunit of the GABAA receptor, one value per compound below.
1. CCCN(CCC)C(=O)Cc1c(-c2ccccc2)nc2ccc(OC)nn12
2. CCN(CC)C(=O)Cc1c(-c2ccc(OC)cc2)nc2ccc(C)nn12
3. Cc1ccc(-c2nc3ccc(C)nn3c2CC(=O)Nc2ccc3ccccc3n2)cc1
4. Cc1ccc(-c2nc3ccc(C)nn3c2CC(=O)N(C(C)C)C(C)C)cc1

1. 73.5
2. 84.5
3. 65.1
4. 91.7

====

I'd appreciate it if you could supply % inhib 10^−7 M, affinity for the α1-subunit of the GABAA receptor values for the items below.
tested on: α1-GABAA receptor; assay: Ligand-binding assay, radiolabeled flumazenil competition, cerebellum membranes; settings: 10^−7 M; rat cerebellum membranes; radiolabeled flumazenil 1 nM
Include the unit after the number when you answer.

Completed entries (count: 4):
Bench note, α1-GABAA receptor: "CCN(CC)C(=O)Cc1c(-c2ccc(OC)cc2)nc2ccc(OC)nn12" , % inhib 10^−7 M, affinity for the α1-subunit of the GABAA receptor reads 52.1%

The recorded % inhib 10^−7 M, affinity for the α1-subunit of the GABAA receptor with α1-GABAA receptor for "COc1ccc2nc(-c3ccc(F)cc3)c(CC(=O)N3CCCCC3)n2n1" was 58.5%

Record for "Cc1ccc(-c2nc3ccc(C)nn3c2CC(=O)NN2CCOCC2)cc1" under target or system α1-GABAA receptor: % inhib 10^−7 M, affinity for the α1-subunit of the GABAA receptor reported as 56.0%

The observed % inhib 10^−7 M, affinity for the α1-subunit of the GABAA receptor for "Cc1ccc(-c2nc3ccc(C)nn3c2CC(=O)NC2CC2)cc1" when tested with α1-GABAA receptor stands at 78.2%

We now examine a further compound.
Lab entry: α1-GABAA receptor assay, compound "CCOc1ccc2nc(-c3ccc(F)cc3)c(CC(=O)N3CCCCC3)n2n1" , % inhib 10^−7 M, affinity for the α1-subunit of the GABAA receptor = 42.2%
